Test system: Shigella sp.
Assay: Antibacterial activity against Shigella sp. after 48 hrs by agar well diffusion method
Assay type: functional
Label key: yes (1) means MIC under 20 µg/mL; no (0) means MIC of 20 µg/mL or more.

Here are 2 compounds together with their reported answers.
structure_notation	class_label
CN[C@@H]1[C@H](O[C@H]2[C@H](O[C@H]3[C@H](O)[C@@H](O)[C@H](N=C(N)N)[C@@H](O)[C@@H]3N=C(N)N)O[C@@H](C)[C@]2(O)C=O)O[C@@H](CO)[C@H](O)[C@H]1O	no (0)
[Br-].[Br-].c1cc2nc(c1)C[n+]1cn(c3ccccc31)Cc1cc3ccccc3nc1Oc1ccccc1Oc1nc3ccccc3cc1Cn1c[n+](c3ccccc31)C2	no (0)

(Q) Identify whether the compound [Br-].[Br-].c1cc2nc(c1)C[n+]1ccn(c1)Cc1cc3ccccc3nc1Oc1ccccc1Oc1nc3ccccc3cc1Cn1cc[n+](c1)C2 records MIC below 20 µg/mL.
(A) no (0)

(Q) Identify whether the compound [Br-].[Br-].c1cc2cc(c1)C[n+]1ccn(c1)Cc1cc3ccccc3nc1Oc1ccc3ccccc3c1-c1c(ccc3ccccc13)Oc1nc3ccccc3cc1Cn1cc[n+](c1)C2 records MIC below 20 µg/mL.
(A) yes (1)

(Q) Identify whether the compound [Br-].[Br-].c1cc2cc(c1)C[n+]1ccn(c1)Cc1cc3ccccc3nc1Oc1ccccc1Oc1nc3ccccc3cc1Cn1cc[n+](c1)C2 records MIC below 20 µg/mL.
(A) no (0)
